- system-name: T1, CADM1-His (Acro Biosystems) (human, UniProt Q9BY67 45-374)
- T1 construct: Bought; also called CADM1/IGSF4A; not shown: His tag of the bought protein
- T1 sequence: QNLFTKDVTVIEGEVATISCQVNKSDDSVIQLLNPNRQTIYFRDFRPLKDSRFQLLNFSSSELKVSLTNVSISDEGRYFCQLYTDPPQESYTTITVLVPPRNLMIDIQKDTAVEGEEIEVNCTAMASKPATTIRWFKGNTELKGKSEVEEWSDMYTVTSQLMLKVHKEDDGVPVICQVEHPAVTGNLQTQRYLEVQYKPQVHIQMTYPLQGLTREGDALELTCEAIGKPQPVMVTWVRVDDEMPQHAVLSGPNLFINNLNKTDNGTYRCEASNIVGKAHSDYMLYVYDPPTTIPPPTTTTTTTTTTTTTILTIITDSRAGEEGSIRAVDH
- experiment-summary: ELISA on coated CADM1-His, 150 ng IgG1; None 0.059
# maps each entry to its ELISA Absorbance (405 nm-570 nm)
// response body must contain only the number

Data request: Name the reported ELISA Absorbance (405 nm-570 nm) value associated with the binder HW-25 chimeric rabbit-human IgG1 LA/LA/PG (antibody, V domains shown, Fc-silenced (L234A/L235A/P329G) IgG1, lambda; Alexa Fluor 647-labeled in single-step flow cytometry; Cluster C-1) VH: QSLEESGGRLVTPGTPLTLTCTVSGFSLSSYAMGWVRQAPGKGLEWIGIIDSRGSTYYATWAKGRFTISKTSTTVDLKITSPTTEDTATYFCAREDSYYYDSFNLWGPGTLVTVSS VL: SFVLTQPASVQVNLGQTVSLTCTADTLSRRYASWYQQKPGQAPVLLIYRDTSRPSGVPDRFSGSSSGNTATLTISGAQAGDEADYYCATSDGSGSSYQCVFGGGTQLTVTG
Data returned: 0.045

Data request: Returns the measured ELISA Absorbance (405 nm-570 nm) for the input binder. Input: HW-56 chimeric rabbit-human IgG1 LA/LA/PG (antibody, V domains shown, Fc-silenced (L234A/L235A/P329G) IgG1, kappa; Alexa Fluor 647-labeled in single-step flow cytometry; Cluster C-45) VH: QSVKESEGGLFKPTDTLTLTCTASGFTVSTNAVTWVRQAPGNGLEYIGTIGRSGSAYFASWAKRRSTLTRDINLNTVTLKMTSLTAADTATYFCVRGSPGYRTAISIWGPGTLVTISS VL: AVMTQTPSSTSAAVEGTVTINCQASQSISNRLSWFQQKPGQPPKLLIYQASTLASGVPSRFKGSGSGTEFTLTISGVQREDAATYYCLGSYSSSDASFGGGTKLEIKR
Data returned: 0.059

Data request: Fill in: ELISA Absorbance (405 nm-570 nm) of HW-101 chimeric rabbit-human IgG1 LA/LA/PG (antibody, V domains shown, Fc-silenced (L234A/L235A/P329G) IgG1, lambda; Alexa Fluor 647-labeled in single-step flow cytometry; Cluster C-97) VH: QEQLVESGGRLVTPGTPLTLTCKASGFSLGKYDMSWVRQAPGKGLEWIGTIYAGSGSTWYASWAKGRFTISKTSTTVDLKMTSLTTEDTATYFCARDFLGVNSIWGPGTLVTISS VL: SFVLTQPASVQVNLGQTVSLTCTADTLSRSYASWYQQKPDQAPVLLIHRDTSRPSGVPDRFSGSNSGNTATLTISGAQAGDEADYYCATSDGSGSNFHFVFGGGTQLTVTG is ___
Data returned: 0.525

Data request: Given the binder HW-70 chimeric rabbit-human IgG1 LA/LA/PG (antibody, V domains shown, Fc-silenced (L234A/L235A/P329G) IgG1, lambda; Alexa Fluor 647-labeled in single-step flow cytometry; Cluster C-1) VH: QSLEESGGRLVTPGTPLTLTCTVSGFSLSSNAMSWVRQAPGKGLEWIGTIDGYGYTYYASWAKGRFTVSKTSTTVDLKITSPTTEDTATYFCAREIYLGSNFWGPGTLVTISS VL: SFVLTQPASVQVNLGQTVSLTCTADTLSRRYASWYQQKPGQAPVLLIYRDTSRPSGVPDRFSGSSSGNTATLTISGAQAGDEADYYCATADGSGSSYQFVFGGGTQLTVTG , what is its reported ELISA Absorbance (405 nm-570 nm)?
Data returned: 0.053

Data request: Recorded ELISA Absorbance (405 nm-570 nm) for HW-113 chimeric rabbit-human IgG1 LA/LA/PG (antibody, V domains shown, Fc-silenced (L234A/L235A/P329G) IgG1, lambda; Alexa Fluor 647-labeled in single-step flow cytometry) VH: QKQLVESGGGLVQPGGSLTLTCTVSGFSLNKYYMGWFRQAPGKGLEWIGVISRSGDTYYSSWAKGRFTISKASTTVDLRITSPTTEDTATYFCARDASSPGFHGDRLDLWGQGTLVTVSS VL: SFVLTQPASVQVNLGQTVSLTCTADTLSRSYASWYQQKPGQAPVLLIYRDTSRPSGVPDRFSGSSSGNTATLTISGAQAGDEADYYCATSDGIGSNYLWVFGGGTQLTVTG , please?
Data returned: 0.058
